The measured values listed here are drawn from patent US20030236190A1.

target: T1, human insulin receptor (HIR) (human, UniProt P06213 28-1382, limits assumed); assay: 125I-insulin displacement, solubilised HIR
T1 construct: Detergent-solubilised receptor; The natural receptor is an alpha2-beta2 heterotetramer cleaved from one precursor
pKd: −log10 of the molar value.
Classify by measured pKd: 1 (yes) if it is equal to or exceeds 6, 0 (no) if it is smaller.

[
  {
    "BINDER": "QLEEEWAGVQCEVYGRECPS [S226]",
    "ANSWER_LABEL": "0 (no)"
  },
  {
    "BINDER": "HPTSKEIYAKLLK [S122]",
    "ANSWER_LABEL": "0 (no)"
  },
  {
    "BINDER": "PLCFLQELFGGASLGGYCSG [S262]",
    "ANSWER_LABEL": "0 (no)"
  },
  {
    "BINDER": "SLNFYDALQLLAKK [S119]",
    "ANSWER_LABEL": "0 (no)"
  },
  {
    "BINDER": "ANFYDWFVAELG [S242]",
    "ANSWER_LABEL": "0 (no)"
  }
]

Does the reported pKd for GRVDWLQRNANFYDWFVAEL [S248] fall at or above the 6 mark?
1 (yes)

Does the reported pKd for HETFYSMIRSLAK [S117] fall at or above the 6 mark?
0 (no)

Does the reported pKd for PLRESRNFYDWFVQQLE [S366] fall at or above the 6 mark?
1 (yes)

Does the reported pKd for LDRQFYRYFQDLLVGFM [S260] fall at or above the 6 mark?
0 (no)

Does the reported pKd for GSLDESFYDWFERQ [S394] fall at or above the 6 mark?
1 (yes)

Does the reported pKd for S293 (not fully specified; N-terminal Lig′ coupled to linker 13, dimer, N-N) peptide 1: XGGGFHENFYDWFVRQVSKK peptide 2: XGGGFHENFYDWFVRQVSKK fall at or above the 6 mark?
1 (yes)

Does the reported pKd for S381 (C-terminal Lig′ coupled to linker 23, dimer, C-C) peptide 1: EEDWLQRNANFYDWFVAELX peptide 2: EEDWLQRNANFYDWFVAELX fall at or above the 6 mark?
1 (yes)

Does the reported pKd for AHENFYDWFVRQVSKK [S113] fall at or above the 6 mark?
1 (yes)

Does the reported pKd for S301 (N-terminal Lig′ coupled to linker 14, dimer, N-N) peptide 1: XDWLQRNANFYDWFVAEL peptide 2: XDWLQRNANFYDWFVAEL fall at or above the 6 mark?
1 (yes)

Does the reported pKd for GRVDWLQRNANFYDWFV [S251] fall at or above the 6 mark?
0 (no)

Does the reported pKd for S255 (not fully specified; C-terminal Lig′ coupled to linker 14, dimer, C-C) peptide 1: SDGFYNAIELLSGGGX peptide 2: SDGFYNAIELLSGGGX fall at or above the 6 mark?
0 (no)

Does the reported pKd for RWPNFYGYFESLLTHFS [S257] fall at or above the 6 mark?
0 (no)

Does the reported pKd for DLWFNAKEDMNFYDWFVWQLR [S342] fall at or above the 6 mark?
0 (no)

Does the reported pKd for S361 (C-terminal Lig′ coupled to linker 24, dimer, C-C) peptide 1: GSLDESFYDWFERQLGKKX peptide 2: GSLDESFYDWFERQLGKKX fall at or above the 6 mark?
0 (no)

Does the reported pKd for DWLQRNANFYDWFVAELX (C-terminal Lig′) [S294] fall at or above the 6 mark?
1 (yes)

Does the reported pKd for TGHRLGLDEQFYWWFRDALSG [S265] fall at or above the 6 mark?
1 (yes)

Does the reported pKd for RVDWLQRNANFYDWFVAELG [S234] fall at or above the 6 mark?
1 (yes)

Does the reported pKd for AAAAFYDWFAAAAAKK [S168] fall at or above the 6 mark?
0 (no)
